Target entity: T1, APC5531-AA
T1 chain: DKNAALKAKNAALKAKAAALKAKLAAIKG
Method description: two-hybrid library CCmax;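 also: natural log of median RNA to DNA barcode read ratio; higher means stronger binding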
Cond: mean of both orientations
Below: a set of entries, each annotated with reported interaction score.
Please state the value as a number alone, without comment.

Examples from the recorded data:
Binder	Test result
DEAAALEAEAAALEAKNAALKAKLAAEKG [APC2257-AA]	-1.97
DKLAAIKAKLAANKAELAANEAKLAAEKG [APC1987-AA]	-1.83
DKAAALKAELAANEAELAANEAKLAAIKG [APC3881-AA]	-1.92

The recorded interaction score for entry DEAAALEAKAAALKAKLAAEKAKNAALKG [APC2375-AA] equals -1.77

The recorded interaction score for entry DKAAALKAKAAALKAKNAALKAENAALEG [APC3354-AA] equals -1.92

The recorded interaction score for entry DKLAAIKAKLAAIKAKLAAIKAKNAALKG [APC1115-AA] equals -1.86

The recorded interaction score for entry DKLAAIKAKLAANKAKLAAIKAELAAEEG [APC1916-AA] equals -1.75
